Test system: 313798-341-R-J2-PDC spheroids, viability;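 also: spheroids exposed to compounds for seven days; 100% = DMSO vehicle control viability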
Test: Anticancer human tumor 313798-341-R-J2-PDC patient-derived cervical squamous cell carcinoma cell line growth inhibition [PI3K]
Conditions: second compound 1 µM; first compound 0.316 µM; stronger effect = lower value; spheroids with HUVEC and MSC

{"molecule": "CCN1CCN(Cc2ccc(Nc3ncc(F)c(-c4cc(F)c5nc(C)n(C(C)C)c5c4)n3)nc2)CC1 + CC(Nc1ncnc2nc[nH]c12)c1cc2cccc(Cl)c2c(=O)n1-c1ccccc1", "viability, T/C, %": 104}
{"molecule": "C=CC(=O)N1CCN(c2nc(=O)n(-c3c(C)ccnc3C(C)C)c3nc(-c4c(O)cccc4F)c(F)cc23)C(C)C1 (configuration not stated) + Cc1nc(NC(=O)N2CCCC2C(N)=O)sc1-c1ccnc(C(C)(C)C(F)(F)F)c1", "viability, T/C, %": 88.2}
{"molecule": "CC1(C)CCC(CN2CCN(c3ccc(C(=O)NS(=O)(=O)c4ccc(NCC5CCOCC5)c([N+](=O)[O-])c4)c(Oc4cnc5[nH]ccc5c4)c3)CC2)=C(c2ccc(Cl)cc2)C1 + CC(Nc1ncnc2nc[nH]c12)c1cc2cccc(Cl)c2c(=O)n1-c1ccccc1", "viability, T/C, %": 94.5}
{"molecule": "Cn1nccc1Nc1nccc(-c2ccn(C(CO)c3ccc(Cl)c(F)c3)c(=O)c2)n1 (configuration not stated) + CC(Nc1ncnc2nc[nH]c12)c1cc2cccc(Cl)c2c(=O)n1-c1ccccc1", "viability, T/C, %": 107}
{"molecule": "CC1(C)CCC(CN2CCN(c3ccc(C(=O)NS(=O)(=O)c4ccc(NCC5CCOCC5)c([N+](=O)[O-])c4)c(Oc4cnc5[nH]ccc5c4)c3)CC2)=C(c2ccc(Cl)cc2)C1 + Cc1nc(NC(=O)N2CCCC2C(N)=O)sc1-c1ccnc(C(C)(C)C(F)(F)F)c1", "viability, T/C, %": 97.2}
{"molecule": "CC(C)NCC(C(=O)N1CCN(c2ncnc3c2C(C)CC3O)CC1)c1ccc(Cl)cc1 (configuration not stated) + CC(Nc1ccc2c(c1)OCCn1cc(N3C(=O)OCC3C(F)F)nc1-2)C(N)=O", "viability, T/C, %": 42.1}
{"molecule": "CCN1CCN(Cc2ccc(Nc3ncc(F)c(-c4cc(F)c5nc(C)n(C(C)C)c5c4)n3)nc2)CC1 + Cc1nc(NC(=O)N2CCCC2C(N)=O)sc1-c1ccnc(C(C)(C)C(F)(F)F)c1", "viability, T/C, %": 88.2}
